B1: Transcription factor SOX-11, residues 50 to 117; numbered along this chain, P35716 (parent)
chain: KRPMNAFMVWSKIERRKIMEQSPDMHNAEISKRLGKRWKMLKDSEKIPFIREAERLRLKHMADYPDYK

Variants of: B1
Test: abundance fitness (aPCA) (normalised: wild type 0, dead -1); higher = more abundant; growth selection in yeast, the domain comes from the species named
Details: Homo sapiens
Label scheme for abundance fitness: lower than -0.3 is criterion not met, -0.3 and above is criterion met.

Illustrative cases are given below, each with its answer.
Identify whether the reported abundance fitness of the following variant is -0.3 or greater: `H26V` criterion met

Identify whether the reported abundance fitness of the following variant is -0.3 or greater: `L41D` criterion not met

Identify whether the reported abundance fitness of the following variant is -0.3 or greater: `E20F` criterion not met

Identify whether the reported abundance fitness of the following variant is -0.3 or greater: `I47G` criterion met

Identify whether the reported abundance fitness of the following variant is -0.3 or greater: `S44Y` criterion met

---
Identify whether the reported abundance fitness of the following variant is -0.3 or greater: `S31L` criterion met

Identify whether the reported abundance fitness of the following variant is -0.3 or greater: `L41F` criterion not met

Identify whether the reported abundance fitness of the following variant is -0.3 or greater: `G35C` criterion met

Identify whether the reported abundance fitness of the following variant is -0.3 or greater: `G35P` criterion met

Identify whether the reported abundance fitness of the following variant is -0.3 or greater: `R55C` criterion not met

Identify whether the reported abundance fitness of the following variant is -0.3 or greater: `S44M` criterion not met

Identify whether the reported abundance fitness of the following variant is -0.3 or greater: `I47D` criterion met

Identify whether the reported abundance fitness of the following variant is -0.3 or greater: `M40T` criterion met

Identify whether the reported abundance fitness of the following variant is -0.3 or greater: `A28Y` criterion not met

Identify whether the reported abundance fitness of the following variant is -0.3 or greater: `E29A` criterion not met

Identify whether the reported abundance fitness of the following variant is -0.3 or greater: `P23Y` criterion not met

Identify whether the reported abundance fitness of the following variant is -0.3 or greater: `I47S` criterion met

Identify whether the reported abundance fitness of the following variant is -0.3 or greater: `I47A` criterion met

Identify whether the reported abundance fitness of the following variant is -0.3 or greater: `Q21C` criterion not met

Identify whether the reported abundance fitness of the following variant is -0.3 or greater: `R37V` criterion met

Identify whether the reported abundance fitness of the following variant is -0.3 or greater: `W38S` criterion not met

Identify whether the reported abundance fitness of the following variant is -0.3 or greater: `W38R` criterion not met
